- System: WT Max(13-93) synthetic (M65Nle)
- assayProtocol: PBM 8-mer E-score (E-score (rank enrichment, -0.5 to 0.5)); higher = stronger preferential binding
The full ranking holds about 33,000 sequences; the median of “E-score (rank enrichment, -0.5 to 0.5)” is about -0.0075, and the highest 2% start at about 0.23. What follows is part of a selection rich in the highest values, with near analogues and random picks from the rest.
assayReadout: PBM 8-mer E-score
// keep it numeric: no unit symbol after the value

Would you please look over these solved cases?
monomersequence=CGATTAGC value=-0.18
monomersequence=ATGTGGAC value=0.238
monomersequence=CTTTGAAA value=0.0996
monomersequence=TAAGGAGA value=0.0617
monomersequence=ATCATGAG value=0.058

So what does the record say about PBM 8-mer E-score for `GACGAATA` ? 0.17

So what does the record say about PBM 8-mer E-score for `CTGTGGAC` ? 0.0601

So what does the record say about PBM 8-mer E-score for `AACATAAT` ? 0.252

So what does the record say about PBM 8-mer E-score for `ATACGTGA` ? -0.00216

So what does the record say about PBM 8-mer E-score for `AGACGTGA` ? 0.103

So what does the record say about PBM 8-mer E-score for `ATAATCAA` ? 0.15

So what does the record say about PBM 8-mer E-score for `CCAAACTA` ? 0.165

So what does the record say about PBM 8-mer E-score for `ATATATAA` ? 0.246

So what does the record say about PBM 8-mer E-score for `GTCGCATA` ? 0.127

So what does the record say about PBM 8-mer E-score for `AAGATGAA` ? 0.0673

* * *

- System: WT Max(13-93) synthetic (M65Nle)
- assayProtocol: PBM 8-mer E-score (E-score (rank enrichment, -0.5 to 0.5)); higher = stronger preferential binding
Over roughly 33,000 sequences, “E-score (rank enrichment, -0.5 to 0.5)” has its median near -0.0075; the highest 2% begin near 0.23. Many of the other results were omitted from the sample, so the highest values are more common in it than they were.
Measured PBM 8-mer E-score of individual entries
// keep it numeric: no unit symbol after the value

Would you please look over these solved cases?
monomersequence=AAAATGAT assayreadout="PBM 8-mer E-score" value=0.249
monomersequence=ACAATGAC assayreadout="PBM 8-mer E-score" value=0.0383

Consider now this further sequence.
So what does the record say about PBM 8-mer E-score for `CACCCTTA` ? 0.118

* * *

- Test system: WT Max(13-93) synthetic (M65Nle)
- assayProtocol: PBM 8-mer E-score (E-score (rank enrichment, -0.5 to 0.5)); higher = stronger preferential binding
In all, about 33,000 sequences were measured (“E-score (rank enrichment, -0.5 to 0.5)”: median about -0.0075, highest 2% from about 0.23 on). The sample holds the highest values, similar sequences and a random draw of the others, so the mix is not that of the screen.
Entry class follows PBM 8-mer E-score: low (below -0.003), intermediate (-0.003 to below 0.2), high (0.2 or more)

Study these solved cases before continuing.
monomersequence=AACGAGAT measuredon="WT Max(13-93) synthetic (M65Nle)" assignedclass=low
monomersequence=CTTGTAGA measuredon="WT Max(13-93) synthetic (M65Nle)" assignedclass=low

Band for `TCTTACCA` ? low

Band for `ATAAAGTG` ? intermediate

Band for `TCGGTAAA` ? intermediate

Band for `AAATTGTT` ? intermediate

Band for `AAGCATAC` ? intermediate

Band for `AGTGGAGG` ? intermediate

Band for `CGGACCTA` ? low

Band for `CGCTGCAG` ? low

Band for `AAACGTGA` ? intermediate

Band for `ACATGGTA` ? high

Band for `ACACGACT` ? intermediate

Band for `TGCCACAA` ? low

Band for `CATGTTGG` ? intermediate

Band for `CAATAAAA` ? high

* * *

- System: WT Max(13-93) synthetic (M65Nle)
- assayProtocol: PBM 8-mer E-score (E-score (rank enrichment, -0.5 to 0.5)); higher = stronger preferential binding
The full ranking holds about 33,000 sequences; the median of “E-score (rank enrichment, -0.5 to 0.5)” is about -0.0075, and the highest 2% start at about 0.23. Only a selection was taken, and the highest values are over-represented in it overall.
PBM 8-mer E-score vs 0.09: at or above is 1.0, below is 0.0.

monomersequence=CGCGGGGA measuredon="WT Max(13-93) synthetic (M65Nle)" assignedclass=0.0
monomersequence=ATTGCCTC measuredon="WT Max(13-93) synthetic (M65Nle)" assignedclass=0.0
monomersequence=CTACCCGC measuredon="WT Max(13-93) synthetic (M65Nle)" assignedclass=0.0
monomersequence=TTAGCGAA measuredon="WT Max(13-93) synthetic (M65Nle)" assignedclass=0.0
monomersequence=CAAACCTA measuredon="WT Max(13-93) synthetic (M65Nle)" assignedclass=0.0
monomersequence=AAGCACGT measuredon="WT Max(13-93) synthetic (M65Nle)" assignedclass=1.0

Reported PBM 8-mer E-score at or above 0.09? `AGATTGGG` 0.0

Reported PBM 8-mer E-score at or above 0.09? `CCCCTCCG` 0.0

Reported PBM 8-mer E-score at or above 0.09? `ATTGGACC` 0.0

Reported PBM 8-mer E-score at or above 0.09? `GCTCTGAC` 0.0

Reported PBM 8-mer E-score at or above 0.09? `ACGCACGT` 1.0

Reported PBM 8-mer E-score at or above 0.09? `AAGCACGG` 1.0

Reported PBM 8-mer E-score at or above 0.09? `GTCGGAGA` 0.0

Reported PBM 8-mer E-score at or above 0.09? `CTGCATAA` 1.0

Reported PBM 8-mer E-score at or above 0.09? `AAACCCTG` 1.0

Reported PBM 8-mer E-score at or above 0.09? `AGCCGCTC` 0.0

Reported PBM 8-mer E-score at or above 0.09? `AACCCCAT` 0.0

Reported PBM 8-mer E-score at or above 0.09? `AACAGACT` 1.0

Reported PBM 8-mer E-score at or above 0.09? `GGCGGGGA` 1.0

Reported PBM 8-mer E-score at or above 0.09? `CTGCTTTA` 1.0

Reported PBM 8-mer E-score at or above 0.09? `GCCTCCCA` 0.0

Reported PBM 8-mer E-score at or above 0.09? `AACACCGC` 0.0

Reported PBM 8-mer E-score at or above 0.09? `GGAAAAGA` 0.0

Reported PBM 8-mer E-score at or above 0.09? `GAGTCCCA` 0.0

* * *

- Tested on: WT Max(13-93) synthetic (M65Nle)
- assayProtocol: PBM 8-mer E-score (E-score (rank enrichment, -0.5 to 0.5)); higher = stronger preferential binding
Over roughly 33,000 sequences, “E-score (rank enrichment, -0.5 to 0.5)” has its median near -0.0075; the highest 2% begin near 0.23. What follows is part of a selection rich in the highest values, with near analogues and random picks from the rest.
Measured PBM 8-mer E-score of individual entries
// keep it numeric: no unit symbol after the value

Would you please look over these solved cases?
monomersequence=AGTATCTA value=0.253
monomersequence=ACAAACAA value=0.112
monomersequence=ATGTGCAG value=0.0828
monomersequence=GTCTTTAA value=0.0691
monomersequence=ACGTGCAC value=0.391
monomersequence=CTGGGTAC value=-0.201

Consider now this further sequence.
So what does the record say about PBM 8-mer E-score for `ATAGAAAA` ? 0.134

* * *

- Test system: WT Max(13-93) synthetic (M65Nle)
- assayProtocol: PBM 8-mer E-score (E-score (rank enrichment, -0.5 to 0.5)); higher = stronger preferential binding
Whole data set: some 33,000 sequences, median “E-score (rank enrichment, -0.5 to 0.5)” near -0.0075, cut for the highest 2% near 0.23. The sample holds the highest values, similar sequences and a random draw of the others, so the mix is not that of the screen.
PBM 8-mer E-score vs 0.1: at or above is 1, below is 0.

monomersequence=CGACCCAG measuredon="WT Max(13-93) synthetic (M65Nle)" assignedclass=0

Reported PBM 8-mer E-score at or above 0.1? `AATGCGTA` 0

* * *

- Tested on: WT Max(13-93) synthetic (M65Nle)
- assayProtocol: PBM 8-mer E-score (E-score (rank enrichment, -0.5 to 0.5)); higher = stronger preferential binding
The full ranking holds about 33,000 sequences; the median of “E-score (rank enrichment, -0.5 to 0.5)” is about -0.0075, and the highest 2% start at about 0.23. This is one part of a sample in which the highest values are shown more often than they occur.
Entry class follows PBM 8-mer E-score: band A = under 0.08, band B = from 0.08 up to 0.2, band C = 0.2 and over

monomersequence=ACATAAAA assignedclass="band B"
monomersequence=GTACGCAA assignedclass="band A"
monomersequence=ATATAAAG assignedclass="band B"
monomersequence=ATCACGTC assignedclass="band B"
monomersequence=CGATAAAA assignedclass="band A"
monomersequence=ATAAAAAT assignedclass="band C"
monomersequence=ATCACACC assignedclass="band A"

Query sequence follows.
Band for `ATCACGTG` ? band C
